assay: Oral pharmacokinetic study in rats; format: in vivo; conditions: SD, rat, plasma, 10 mg/kg
experimental_endpoint: half-life

O=C(c1cccc(Nc2c(NC3C[C@@H]4CC[C@H]3C4)c(=O)c2=O)c1O)N1CCCC1 (stereo partly shown) ... 2.58 h

* * *

target: CXCR2 (Homo sapiens, UniProt P25025); assay: CXCR2 antagonistic activity assay; assay type: cell-based
Sequence (P25025 whole entry): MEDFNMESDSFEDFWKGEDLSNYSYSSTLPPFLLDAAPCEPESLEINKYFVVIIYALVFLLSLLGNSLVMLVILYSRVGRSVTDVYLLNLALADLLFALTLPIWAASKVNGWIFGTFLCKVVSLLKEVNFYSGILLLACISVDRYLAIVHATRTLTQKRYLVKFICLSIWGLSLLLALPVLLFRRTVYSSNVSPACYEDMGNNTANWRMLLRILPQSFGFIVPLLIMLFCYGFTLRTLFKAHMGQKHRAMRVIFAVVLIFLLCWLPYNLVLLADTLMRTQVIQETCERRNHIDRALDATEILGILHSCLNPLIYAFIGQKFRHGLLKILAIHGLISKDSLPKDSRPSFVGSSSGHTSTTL
Each record is given Condition met if its reported Ratio = CXCR1 IC50/CXCR2 IC50 (selectivity for CXCR2 over CXCR1) is strictly below 90. Records at or above 90 are given Condition not met.

O=C(c1cccc(Nc2c(NC3C[C@@H]4CC[C@H]3C4)c(=O)c2=O)c1O)N1CCCCC1 (some centres unmarked) [2f] ... Condition met
CN(C)C(=O)c1cccc(Nc2c(NCC3C[C@H]4C=C[C@@H]3C4)c(=O)c2=O)c1O (some centres unmarked) [1e] ... Condition met
N#Cc1ccc(Nc2c(NC3C[C@@H]4CC[C@H]3C4)c(=O)c2=O)c(O)c1 (some centres unmarked) [2b] ... Condition not met
CC(C)(C)OC(=O)N1CCN(C(=O)c2cccc(Nc3c(NC4C[C@@H]5CC[C@H]4C5)c(=O)c3=O)c2O)CC1 (some centres unmarked) [2g] ... Condition met
CC(C)S(=O)(=O)c1c(Cl)ccc(Nc2c(NC3C[C@@H]4CC[C@H]3C4)c(=O)c2=O)c1O (some centres unmarked) [2c] ... Condition not met
